Molecular target: PA1b receptor
Test: Competitive ligand binding with 125I-PA1b on microsomal protein
Settings: competition with 0.4 nM 125I-PA1b, 20 µg microsomal protein per assay, peptide 0.01 to 1000 nM; mean ± standard error; SEM; read-out: Ki (affinity to the PA1b receptor)
Bridge positions count the residues as written; N and C are the ends. Ends that are not written are not given here.
observationType: pKi
The quantity pKi is defined as the negative base-10 logarithm of the molar concentration.

Req: Provide only the value of recorded pKi for ASCPNVGAVCSPFETKPCGNVADCRCLPWGLFFGTCINPTG (disulfide 3-24, 10-26, 18-36) [K22A]
Resp: 8.49

Req: Provide only the value of recorded pKi for ASCPNVGAVCSPFETKPCGNVKDCRCLPWGLFAGTCINPTG (disulfide 3-24, 10-26, 18-36) [F33A]
Resp: 7.82

Req: Provide only the value of recorded pKi for ASCPNVGAVCSPFETKPCGNVKDCRCLPAGLFFGTCINPTG (disulfide 3-24, 10-26, 18-36) [W29A]
Resp: 7.44

Req: Provide only the value of recorded pKi for ASCPNVGAVCSPFATKPCGNVKDCRCLPWGLFFGTCINPTG (also: bicyclic or more (positions not given here)) [E14A, single point alanine mutant of AG41 at Glu-14]
Resp: 8.92

Req: Provide only the value of recorded pKi for ASCPNVGAVCSPFETAPCGNVKDCRCLPWGLFFGTCINPTG (disulfide 3-24, 10-26, 18-36) [K16A]
Resp: 8.44

Req: Provide only the value of recorded pKi for ASCPNVGAVCSPFETKPCGNVKDCRCLPWGAFFGTCINPTG (also: bicyclic or more (positions not given here)) [L31A, single point alanine mutant of AG41 at Leu-31]
Resp: 6.58

Req: Provide only the value of recorded pKi for ASCPNVGAVCSPFETKPCGNVKDCRCLPWGLFFGTCINPTG (disulfide 3-24, 10-26, 18-36) [AG41]
Resp: 8.89

Req: Provide only the value of recorded pKi for ASCPNVGAVCSPFETKPCGNVKDCRCAPWGLFFGTCINPTG (disulfide 3-24, 10-26, 18-36) [L27A]
Resp: 6.31

Req: Provide only the value of recorded pKi for ASCPNVGAVCSPFETKPCGNVKACRCLPWGLFFGTCINPTG (disulfide 3-24, 10-26, 18-36) [D23A]
Resp: 8.92

Req: Provide only the value of recorded pKi for ASCPNVGAVCSPFETKPCGNVKDCRCLPWGLAFGTCINPTG (disulfide 3-24, 10-26, 18-36) [F32A]
Resp: 7.40
